Target: ETA L259^5.42A (Homo sapiens, UniProt P25101, L259A)
Assay: Calcium mobilization assay, antagonist mode
Protocol: CHO-K1 cells were cultured in Ham’s F-12K (Kaighn’s) Medium (Gibco-Thermo Fisher Scientific) supplemented with 10% (v/v) fetal bovine serum (FBS; Gibco-Thermo Fisher Scientific), and 100 U/mL Penicillin-Streptomycin (Gibco-Thermo Fisher Scientific) in a humidified incubator at 37 °C with 5% CO2. […] All data were analyzed using GraphPad Prism 8 and the data are from at least three independent replicate experiments. […]
Endpoint Label: IC50 (µM)

a: COC(c1ccccc1)(c1ccccc1)[C@H](Oc1nc(C)cc(C)n1)C(=O)O
b: CCCNS(=O)(=O)Nc1ncnc(OCCOc2ncc(Br)cn2)c1-c1ccc(Br)cc1
Could you tell me which of a and b has the lower IC50 reading? Provide the label of your selected option as the answer.
b

###

Molecular target: ETA WT (Homo sapiens, UniProt P25101)
Construct: expressed in transfected cells; host or cells: CHO-K1
Sequence (P25101 21-427): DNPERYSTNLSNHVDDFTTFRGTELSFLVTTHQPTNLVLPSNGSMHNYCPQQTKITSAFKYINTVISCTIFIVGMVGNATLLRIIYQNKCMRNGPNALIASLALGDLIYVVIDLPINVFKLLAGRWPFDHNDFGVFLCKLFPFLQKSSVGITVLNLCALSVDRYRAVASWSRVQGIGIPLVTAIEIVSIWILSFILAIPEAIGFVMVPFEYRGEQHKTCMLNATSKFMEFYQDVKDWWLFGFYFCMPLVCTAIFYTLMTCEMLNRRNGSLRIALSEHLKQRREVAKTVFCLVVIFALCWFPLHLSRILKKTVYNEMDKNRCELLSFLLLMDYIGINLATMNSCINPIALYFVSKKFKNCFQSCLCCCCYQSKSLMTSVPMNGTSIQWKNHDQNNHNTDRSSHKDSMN
Assay: Calcium mobilization assay, antagonist mode (ET-1 stimulated), CHO-K1 cells
Type: cell-based
Conditions: CHO-K1 cells, n = 5, read-out: IC50, inhibition activity on ETA in calcium mobilization assay
Endpoint Label: IC50 (nM)

A: COC(c1ccccc1)(c1ccccc1)[C@H](Oc1nc(C)cc(C)n1)C(=O)O
B: CCCNS(=O)(=O)Nc1ncnc(OCCOc2ncc(Br)cn2)c1-c1ccc(Br)cc1
Could you tell me which of A and B has the lower IC50 reading? Provide the label of your selected option as the answer.
A

###

Target: ETB V177^3.28F+H150^2.53Y (Homo sapiens, UniProt P24530, H150Y/V177F)
Sequence (P24530 27-442 H150Y/V177F): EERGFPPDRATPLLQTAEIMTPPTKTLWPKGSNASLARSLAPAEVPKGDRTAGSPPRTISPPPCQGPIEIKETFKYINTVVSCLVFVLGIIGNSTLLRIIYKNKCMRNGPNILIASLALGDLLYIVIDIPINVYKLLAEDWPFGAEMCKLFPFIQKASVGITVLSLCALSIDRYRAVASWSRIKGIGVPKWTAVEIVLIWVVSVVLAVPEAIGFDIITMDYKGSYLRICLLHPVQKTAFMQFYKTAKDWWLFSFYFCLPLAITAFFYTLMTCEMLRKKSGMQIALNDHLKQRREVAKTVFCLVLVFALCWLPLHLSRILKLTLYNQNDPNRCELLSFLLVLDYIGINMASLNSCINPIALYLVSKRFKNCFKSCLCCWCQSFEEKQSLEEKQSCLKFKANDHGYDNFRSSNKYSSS
Experiment: Calcium mobilization assay, antagonist mode
Description: CHO-K1 cells were cultured in Ham’s F-12K (Kaighn’s) Medium (Gibco-Thermo Fisher Scientific) supplemented with 10% (v/v) fetal bovine serum (FBS; Gibco-Thermo Fisher Scientific), and 100 U/mL Penicillin-Streptomycin (Gibco-Thermo Fisher Scientific) in a humidified incubator at 37 °C with 5% CO2. […] All data were analyzed using GraphPad Prism 8 and the data are from at least three independent replicate experiments. […]
Endpoint Label: IC50 (µM)
# output: bare number, implied unit µM

IC50 for COc1nc(C)cnc1NS(=O)(=O)c1cccnc1-c1ccc(-c2nnco2)cc1 ?
33.1

###

Target: ETA Y129^2.53H (Homo sapiens, UniProt P25101, Y129H)
Sequence (P25101 21-427 Y129H): as the sequence (P25101 21-427) above, with Y109H counted along it
Assay: Calcium mobilization assay, antagonist mode
Endpoint Label: IC50 (nM)

1: COC(c1ccccc1)(c1ccccc1)[C@H](Oc1nc(C)cc(C)n1)C(=O)O
2: CCCNS(=O)(=O)Nc1ncnc(OCCOc2ncc(Br)cn2)c1-c1ccc(Br)cc1
Could you tell me which of 1 and 2 has the lower IC50 reading? Provide the label of your selected option as the answer.
1
(1: 575 nM, 2: 891 nM)

###

Target: ETA Y129^2.53F (Homo sapiens, UniProt P25101, Y129F)
Assay: Calcium mobilization assay, antagonist mode
Endpoint Label: IC50 (nM)

a: CCCNS(=O)(=O)Nc1ncnc(OCCOc2ncc(Br)cn2)c1-c1ccc(Br)cc1
b: COC(c1ccccc1)(c1ccccc1)[C@H](Oc1nc(C)cc(C)n1)C(=O)O
Could you tell me which of a and b has the lower IC50 reading? Provide the label of your selected option as the answer.
a

###

Molecular target: ETA Y263^5.46A (Homo sapiens, UniProt P25101, Y263A)
Sequence (P25101 21-427 Y263A): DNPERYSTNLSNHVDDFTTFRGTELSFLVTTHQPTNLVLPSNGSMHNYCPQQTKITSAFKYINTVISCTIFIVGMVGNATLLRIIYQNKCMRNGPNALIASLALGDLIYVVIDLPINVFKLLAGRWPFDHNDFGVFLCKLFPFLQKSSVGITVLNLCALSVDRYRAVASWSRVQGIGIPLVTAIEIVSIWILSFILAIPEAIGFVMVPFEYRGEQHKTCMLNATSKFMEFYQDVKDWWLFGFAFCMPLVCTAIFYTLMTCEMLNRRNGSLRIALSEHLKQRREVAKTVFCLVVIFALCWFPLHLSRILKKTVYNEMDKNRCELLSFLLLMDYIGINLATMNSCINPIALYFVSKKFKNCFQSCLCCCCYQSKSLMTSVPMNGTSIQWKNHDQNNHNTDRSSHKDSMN
Test: Calcium mobilization assay, antagonist mode
Endpoint Label: IC50 (µM)

A: CCCNS(=O)(=O)Nc1ncnc(OCCOc2ncc(Br)cn2)c1-c1ccc(Br)cc1
B: COC(c1ccccc1)(c1ccccc1)[C@H](Oc1nc(C)cc(C)n1)C(=O)O
Could you tell me which of A and B has the lower IC50 reading? Provide the label of your selected option as the answer.
A

Each recorded value in this set is attributed to paper PMC11286772.
